# protocol.summary: AUClast in Sprague-Dawley rat at 10 mg/kg, iv measured for each 30 mins by LC-MS/MS analysis
# Type: ADME, organism-based
# Design: dose 10 mg/kg, route intravenous, time 0 - last
# run.parameters: in vivo
reported.property: AUC(0-t) at 0.5 h (ng·h/mL)
Could you give me the number in ng·h/mL? Just the number is fine.

INPUT: Entry under review: COc1ccc(-c2nn(-c3cccc(NC(=O)c4cccc(C(F)(F)F)c4)c3)cc2-c2ccncc2)cc1Cl . Reported AUC(0-t) at 0.5 h?
OUTPUT: 1450

###

# test.system: Mitogen-activated protein kinase 14 (Homo sapiens, UniProt Q16539)
# Sequence (Q16539 whole entry): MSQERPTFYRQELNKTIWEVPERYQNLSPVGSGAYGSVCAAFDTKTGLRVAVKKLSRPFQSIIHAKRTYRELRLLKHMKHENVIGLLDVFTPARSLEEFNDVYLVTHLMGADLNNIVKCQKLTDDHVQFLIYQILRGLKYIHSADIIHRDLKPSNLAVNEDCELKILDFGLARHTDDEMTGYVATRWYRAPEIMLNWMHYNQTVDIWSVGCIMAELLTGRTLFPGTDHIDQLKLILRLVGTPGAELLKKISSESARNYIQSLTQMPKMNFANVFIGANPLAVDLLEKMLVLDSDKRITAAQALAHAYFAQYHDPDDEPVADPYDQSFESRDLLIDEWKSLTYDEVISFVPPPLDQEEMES
# protocol.summary: Inhibition of human p38alpha using MBP as substrate by [gamma-33P]-ATP assay
Measured IC50 values are reported for all entries that follow.

smiles_entry=COc1ccc(-c2nn(-c3cccc(NC(=O)c4cccc(C(F)(F)F)c4)c3)cc2-c2ccncc2)cc1Cl test_value="0.022 µM"
smiles_entry=COc1ccc(-c2nn(-c3cccc(NC(=O)Nc4ccccc4)c3)cc2-c2ccncc2)cc1Cl test_value="4 µM"

INPUT: Entry under review: COc1ccc(-c2nn(-c3cccc(NC(=O)c4ccc(N5CCOCC5)c(C(F)(F)F)c4)c3)cc2-c2ccncc2)cc1Cl . Reported IC50?
OUTPUT: 6.07 µM

INPUT: Entry COc1ccc(-c2nn(-c3cccc(NC(=O)c4ccc(Cl)c(Cl)c4)c3)cc2-c2ccncc2)cc1Cl please
OUTPUT: 1.29 µM

INPUT: Entry COc1ccc(-c2nn(-c3cccc(NC(=O)Nc4ccc(Cl)c(Cl)c4)c3)cc2-c2ccncc2)cc1Cl please
OUTPUT: 2.83 µM

INPUT: Entry O=C(Nc1cccc(-n2cc(-c3ccncc3)c(-c3ccc(O)c(Cl)c3)n2)c1)Nc1cc(C(F)(F)F)cc(C(F)(F)F)c1 please
OUTPUT: > 30 µM

INPUT: Entry O=C(Nc1cccc(-n2cc(-c3ccncc3)c(-c3ccc(O)c(Cl)c3)n2)c1)Nc1cccc(C(F)(F)F)c1 please
OUTPUT: > 30 µM

INPUT: Entry O=C(Nc1cccc(-n2cc(-c3ccncc3)c(-c3ccc(O)c(Cl)c3)n2)c1)c1cc(C(F)(F)F)cc(C(F)(F)F)c1 please
OUTPUT: > 30 µM

###

# protocol.summary: Half life in Sprague-Dawley rat at 10 mg/kg, iv measured for each 30 mins by LC-MS/MS analysis
# Format: ADME, organism-based
# run.parameters: in vivo
reported.property: half-life

INPUT: Entry under review: COc1ccc(-c2nn(-c3cccc(NC(=O)c4cccc(C(F)(F)F)c4)c3)cc2-c2ccncc2)cc1Cl . Reported half-life?
OUTPUT: 6.4 h

###

# test.system: Mitogen-activated protein kinase 14 (Homo sapiens, UniProt Q16539)
# protocol.summary: Inhibition of p38alpha (unknown origin)
reported.property: pIC50
The quantity pIC50 is defined as the negative base-10 logarithm of the molar concentration.

INPUT: Item COc1cccc(-c2nn(-c3ccccc3)cc2-c2ccncc2)c1 with Mitogen-activated protein kinase 14 (Homo sapiens, UniProt Q16539) - pIC50?
OUTPUT: 6.29

###

Measured remaining at 2 h, 10 µM values are reported for all entries that follow.
# protocol.summary: Stability in rat plasma assessed as remaining compound at 10 uM incubated for 120 mins by LC-MS analysis
# Format: ADME, cell-free
# run.parameters: read-out: Stability
Could you give me the number in %? Just the number is fine.

# count of solved cases: 2
smiles_entry=COc1ccc([C@@H]2Sc3ccccc3N(CCN(C)C)C(=O)[C@@H]2OC(C)=O)cc1 test_value=45.4
smiles_entry=CCN(CC)CCOC(=O)c1ccc(N)cc1 test_value=42.7

Now for the compound whose remaining at 2 h, 10 µM we want.
INPUT: Entry under review: COc1ccc(-c2nn(-c3cccc(NC(=O)c4cccc(C(F)(F)F)c4)c3)cc2-c2ccncc2)cc1Cl . Reported remaining at 2 h, 10 µM?
OUTPUT: 100

###

# test.system: Mitogen-activated protein kinase 14 (Homo sapiens)
# protocol.summary: Inhibition of recombinant Nanoluc-tagged p38alpha (unknown origin) expressed in HEK293 cells incubated for 2 to 3 mins by NanoBRET assay
reported.property: EC50 (µM)
Could you give me the number in µM? Just the number is fine.

INPUT: Item COc1ccc(-c2nn(-c3cccc(NC(=O)Nc4cc(C(F)(F)F)cc(C(F)(F)F)c4)c3)cc2-c2ccncc2)cc1Cl with Mitogen-activated protein kinase 14 (Homo sapiens) - EC50?
OUTPUT: 1.94

INPUT: Entry COc1ccc(-c2nn(-c3cccc(NC(=O)c4cccc(C(F)(F)F)c4)c3)cc2-c2ccncc2)cc1Cl please
OUTPUT: 0.52

###

# test.system: Hepatocyte growth factor receptor (Homo sapiens, UniProt P08581)
# Sequence (P08581 whole entry): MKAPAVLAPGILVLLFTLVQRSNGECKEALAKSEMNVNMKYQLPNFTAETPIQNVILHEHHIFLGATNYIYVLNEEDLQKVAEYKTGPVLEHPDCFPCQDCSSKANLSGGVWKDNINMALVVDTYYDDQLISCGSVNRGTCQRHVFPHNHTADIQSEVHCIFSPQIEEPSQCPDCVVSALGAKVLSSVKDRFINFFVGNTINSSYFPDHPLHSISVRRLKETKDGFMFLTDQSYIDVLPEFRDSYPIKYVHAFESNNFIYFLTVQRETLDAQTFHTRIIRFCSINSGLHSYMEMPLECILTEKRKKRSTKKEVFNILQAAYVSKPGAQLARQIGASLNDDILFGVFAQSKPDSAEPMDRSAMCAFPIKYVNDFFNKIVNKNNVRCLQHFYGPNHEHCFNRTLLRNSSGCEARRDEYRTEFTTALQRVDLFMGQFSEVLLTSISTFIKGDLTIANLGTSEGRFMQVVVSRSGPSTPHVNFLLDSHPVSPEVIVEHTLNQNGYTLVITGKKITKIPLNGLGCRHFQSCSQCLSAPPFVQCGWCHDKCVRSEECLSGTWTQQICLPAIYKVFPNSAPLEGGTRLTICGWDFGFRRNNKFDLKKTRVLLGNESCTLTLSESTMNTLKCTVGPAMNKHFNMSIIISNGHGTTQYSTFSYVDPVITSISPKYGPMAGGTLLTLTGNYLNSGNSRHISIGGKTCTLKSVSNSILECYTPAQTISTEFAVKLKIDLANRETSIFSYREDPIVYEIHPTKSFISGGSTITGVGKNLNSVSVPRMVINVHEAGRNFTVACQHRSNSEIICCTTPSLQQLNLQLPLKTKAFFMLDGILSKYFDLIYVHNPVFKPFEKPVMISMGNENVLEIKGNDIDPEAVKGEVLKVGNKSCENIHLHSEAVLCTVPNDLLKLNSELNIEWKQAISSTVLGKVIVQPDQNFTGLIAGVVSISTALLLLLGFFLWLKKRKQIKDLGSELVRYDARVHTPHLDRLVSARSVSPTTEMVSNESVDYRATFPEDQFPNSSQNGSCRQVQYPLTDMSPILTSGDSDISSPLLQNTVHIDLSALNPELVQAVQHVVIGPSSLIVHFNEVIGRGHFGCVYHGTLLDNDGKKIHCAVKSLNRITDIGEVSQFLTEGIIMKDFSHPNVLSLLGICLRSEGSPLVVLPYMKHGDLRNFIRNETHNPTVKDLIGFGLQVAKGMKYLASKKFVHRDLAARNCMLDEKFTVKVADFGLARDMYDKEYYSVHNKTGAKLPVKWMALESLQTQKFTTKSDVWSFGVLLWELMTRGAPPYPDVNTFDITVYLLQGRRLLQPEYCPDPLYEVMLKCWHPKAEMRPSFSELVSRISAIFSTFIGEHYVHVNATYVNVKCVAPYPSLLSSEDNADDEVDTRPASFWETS
reported.property: IC50

INPUT: Item COc1ccc(-c2nn(-c3cccc(NC(=O)c4cccc(C(F)(F)F)c4)c3)cc2-c2ccncc2)cc1Cl with Hepatocyte growth factor receptor (Homo sapiens, UniProt P08581) - IC50?
OUTPUT: > 10 µM

###

# protocol.summary: Stability in rat plasma assessed as remaining compound at 10 uM incubated for 30 mins by LC-MS analysis
# Format: ADME, cell-free
# run.parameters: read-out: Stability
reported.property: remaining at 0.5 h, 10 µM (%)
Could you give me the number in %? Just the number is fine.

# count of solved cases: 2
smiles_entry=COc1ccc(-c2nn(-c3cccc(NC(=O)c4cccc(C(F)(F)F)c4)c3)cc2-c2ccncc2)cc1Cl reported_property="remaining at 0.5 h, 10 µM" test_value=100
smiles_entry=CCN(CC)CCOC(=O)c1ccc(N)cc1 reported_property="remaining at 0.5 h, 10 µM" test_value=89.9

Now for the compound whose remaining at 0.5 h, 10 µM we want.
INPUT: Entry under review: COc1ccc([C@@H]2Sc3ccccc3N(CCN(C)C)C(=O)[C@@H]2OC(C)=O)cc1 . Reported remaining at 0.5 h, 10 µM?
OUTPUT: 86.3
